Data provenance: patent US9862686B2

Quantity Name: melting point

Smiles Data: N#Cc1ccc(S(=O)(=O)n2cc(F)c(N)nc2=O)cc1
Obs Value: 210 °C

Smiles Data: Nc1nc(=O)n(S(=O)(=O)c2ccc(Cl)cc2Cl)cc1F
Obs Value: 229 to 230 °C

Smiles Data: Cc1cc(Oc2ncc(C(F)(F)F)cc2Cl)ccc1S(=O)(=O)n1cc(F)c(N)nc1=O
Obs Value: 132 °C (dec.)

INPUT: What does the data say about its melting point? Entry: Nc1nc(=O)n(S(=O)(=O)Cc2ccc(Cl)cc2)cc1F
OUTPUT: 168 to 170 °C

INPUT: What would you report for Nc1nc(=O)n(S(=O)(=O)c2cccs2)cc1F ?
OUTPUT: 187 to 189 °C

INPUT: What would you report for CCCS(=O)(=O)n1cc(F)c(N)nc1=O ?
OUTPUT: 144 to 146 °C

INPUT: What would you report for CS(=O)(=O)n1cc(F)c(N)nc1=O ?
OUTPUT: 181 to 184 °C

INPUT: What would you report for COc1ccc(S(=O)(=O)n2cc(F)c(NC(=O)Nc3ccccc3)nc2=O)cc1 ?
OUTPUT: 185 to 191 °C

----------
The entries below are paired with their reported melting point.

# count of solved cases: 8
Smiles Data: O=C(Nc1nc(=O)n(S(=O)(=O)c2ccc(Cl)cc2)cc1F)Oc1ccccc1
Obs Value: 192 to 195 °C
--
Smiles Data: CCC(=O)Nc1nc(=O)n(S(=O)(=O)c2ccc(Cl)cc2)cc1F
Obs Value: 148 to 154 °C (dec.)
--
Smiles Data: Nc1nc(=O)n(S(=O)(=O)c2ccccc2)cc1F
Obs Value: 195 to 196 °C
--
Smiles Data: Nc1nc(=O)n(S(=O)(=O)c2c(Cl)cccc2Cl)cc1F
Obs Value: 209 to 212 °C
--
Smiles Data: Cc1ccc(S(=O)(=O)n2cc(F)c(N)nc2=O)cc1
Obs Value: 208 to 210 °C
--
Smiles Data: CN(C)/C=N/c1nc(=O)n(S(=O)(=O)c2c(Cl)cccc2Cl)cc1F
Obs Value: 207 to 211 °C
--
Smiles Data: Cc1ccc(S(=O)(=O)n2cc(F)c(/N=C/N(C)C)nc2=O)cc1
Obs Value: 199 to 203 °C
--
Smiles Data: O=C(Nc1nc(=O)n(S(=O)(=O)c2c(Cl)cccc2Cl)cc1F)Oc1ccccc1
Obs Value: 199 to 203 °C

INPUT: What does the data say about its melting point? Entry: O=C(Nc1nc(=O)n(S(=O)(=O)c2ccc(Cl)cc2)cc1F)c1ccccc1
OUTPUT: 156 to 159 °C

----------
- Tested on: Mycosphaerella graminicola; Anamorph: Septoria tritici; Bayer Code SEPTTR
- Assay Details: Fungicidal activity: leaf blotch of wheat, protectant and curative treatment of inoculated wheat plants
- Assay type: in vivo
- Test Context: Zymoseptoria tritici, 24 h; One-Day Protectant (1DP), 100 ppm, wheat plants (variety Yuma), percent control vs untreated inoculated plants; read-out: SEPTTR 100 PPM 1DP (% Disease Control rating)
Quantity Name: pest or weed control at 100 ppm

INPUT: What does the data say about its pest or weed control at 100 ppm? Entry: CN(C)/C=N/c1nc(=O)n(S(=O)(=O)c2cn(C)cn2)cc1F
OUTPUT: 26 to 50%

INPUT: What would you report for Nc1nc(=O)n(S(=O)(=O)c2cccs2)cc1F ?
OUTPUT: 76 to 100%

INPUT: What would you report for Cn1cnc(S(=O)(=O)n2cc(F)c(N)nc2=O)c1 ?
OUTPUT: 26 to 50%

INPUT: What would you report for N#Cc1ccc(S(=O)(=O)n2cc(F)c(N)nc2=O)cc1 ?
OUTPUT: 51 to 75%

INPUT: What would you report for Nc1nc(=O)n(S(=O)(=O)c2ccc(Cl)cc2)cc1F ?
OUTPUT: 76 to 100%
